# protocol: yeast display, Sf9 membrane polyspecificity reagent, FACS + sequencing; frameworks hold sequencing errors
experimental_readout: polyreactivity (PSR sort gate)

Examples with answers:
QVQLVESGGGLVQAGGSLRLSCAASGSLYFAYAMGWYRQAPGKEREFVAAISASGGSTSYADSVKGRFTISRDNAKNTVYLQMNSLKPEDTAVYYCATEHRVTTYDYWGQGTQVTVSS: low polyreactivity
QVQLVESGGGLVQAGGSLRLSSAASGIIFDYNAMGWYRQAPGKERELVAAISYSGDSTYYADSVKGRFTISRDNAKNTVYLQMNSLKPEDTAVYYCAAVIYFGWWYVYTEDDYWGQGTQVTVSS: high polyreactivity
QVQLVESGGGLVQAGGSLRLSCAASGSTFVTYAMGWYRQAPGKERELVAAISRSGGSTYYADSVKGRFTISRDNAKNTVYLQMNSLKPEDTAVYYCAAVIYPYYSYAHRYDYWGQGTQVTVSS: low polyreactivity
QLQLQESIGGLVQAGGSLRMSCAASGTIFHFHIMGWYRQAPGKEREFVAAISYGTSTYYADSVKGRFTISRDNAKNTVYLHMNSQKPEDTAVYYCAVYDYLEVYCWYWGQGTQVTLSS: low polyreactivity
QVQLVESGGGLVQAGGSLRLSCAASGRTFGGYAMGWYRQAPGKERELVASITRSGGGTYYADSVKGRFTISRDNAKNTVYLQMNSLKPEDTAVYYCAVYFANPYSVYGLGVYSTLNYWGQGTQVTVSS: low polyreactivity

I have this sequence here, QVQLVESGGGLVQAGGSLRLSWAASGSIFQDYAMGWYRQAPGKERDLVAAISSSGTSTYYADSVKGRCTISRDNAKNTVSLQMNSLQPEDTAVFYCAAPPGRVARYDYWGQGTQVTVSS , and I need its recorded polyreactivity (PSR sort gate).
low polyreactivity

I have this sequence here, QVQLVESGGGLVQAGGSLRLSCAASGRIFTHNAMGWYRQAHGKERELVAAISYSGVSTYYADSVKGRFTISRDNAKNTVYLQMNSLIPEDTAVYYCARRYWYPDAFYRYDYWGQGTQGTVSS , and I need its recorded polyreactivity (PSR sort gate).
low polyreactivity

I have this sequence here, QVQLVESGGGLVQAGGSLRLSCAASGRIFWQNAMGWYRQAPGKERELVAAISSRGGTTYYADSVKGRFTISRDNAKNTVYLQMNSLIPEDTAVYYCNAALLLRYRGFFTVAAYDYWGQGTQVTVSS , and I need its recorded polyreactivity (PSR sort gate).
low polyreactivity

I have this sequence here, QVQLVESVGGLVQAGGSLRLSCAASGRIFHWYAMGWYRQAPGKERELVAAIRWTGGSTYYADSVKGRFTISRDNAKNTVYLQMNSLKPEDTAVYYCAAKGYTGIFYEMDYWGQGTQVTVSS , and I need its recorded polyreactivity (PSR sort gate).
low polyreactivity

----------
# protocol: yeast display, Sf9 membrane polyspecificity reagent, FACS + sequencing; frameworks hold sequencing errors
experimental_readout: polyreactivity (PSR sort gate)

Examples with answers:
QVQLVESGGGLVQAGGSLRLSCSASGITFPDYAMGWYRQAPVKERELVATISSSGGNTYYADSVKGRFTISRDNAKNTVYLQMNSLKPEDTAVYYCATVSYYWGYDYWGQGTQVTVSS: low polyreactivity
QVQLVESGGGLVQAGGSLRLSCAASGLILRRYAMGWYRQAPGKERELVAAITSGGRTYYADSVKGRFTISRDNAKNTVYLQMNSLKPEDTAVYYCNAVKLVRHTTPYDYWGQGTQVTVSS: high polyreactivity
QVQLVESGGRLVQAGGSLRLSCAAAGSTIPKYAMGWYRQPPGKERELVAAITWRGGSTYYADSVKGRFTISRDNAKNTVYLQMNSLKPEDTAVDYCAAEPYYPSRMDYWGQGTQVTVSS: low polyreactivity
QVQLVESGGGLVQAGGSLRLSCASSGRTFYRNAMGWYRQAPGKERELVAAITSGGSTYYADSVKGRFTISRDNAKNTVYLQMNSLKPEDNAVYYCAKRIGWVPSRSWTPAFWGQGTQVNVSS: low polyreactivity
QVQLVESGGGLVQAGGSLRLSCAASGRIFVKNAMGWYRQAPGKERELVAGISRGGSTYYADSVKGRFTISRDNAKNTVYLQMNSLKPEDTAVYYCATRNYGRGQFDYWGQGTQVTVSS: high polyreactivity

I have this sequence here, QVQLVESGGGLVQAGGSLRLSCAASGIIFRYYAMGWYRQAPGKERELVAAISWSTDSTYYADSVKGRFTISRDNAKNTVYLPMNSLKPEDTAVYYCNARPSYYRISPYDYWGQGTQVTVSS , and I need its recorded polyreactivity (PSR sort gate).
high polyreactivity

I have this sequence here, QVQLVESGGGLVQAGGSLRLSCASSGSTFSRYALGWYRQAPGKERELVAAITSYGGSTYYADSVKGRFTISRDKAKNTFYLQMNSLKPEYTAVYYCAASYQVRYDYWGQGTQVTVSS , and I need its recorded polyreactivity (PSR sort gate).
high polyreactivity

I have this sequence here, QVQLVESGGGLVQAGGSLRLSCAPSGSIFGGYAMGWYRQAPGKERELVAAITWGGGSTYYADSVKGRFTISRDNAKNTVYLQMISLKPEATAVYYCAADRSWYDWEDDYWGQGTQVTVSS , and I need its recorded polyreactivity (PSR sort gate).
low polyreactivity

I have this sequence here, QVQLVESGGGLVQAGGSLRLSCAASGSIFYSYAMGWYRQAPGKERELVAAISYRGGSTYYADSVKGRFTISRDNAKNTVYLQMNSLKPEDTAVYYCAADARQSRYNYWGQGTQVTVSS , and I need its recorded polyreactivity (PSR sort gate).
high polyreactivity
